target_desc: Protein cereblon/Eukaryotic peptide chain release factor GTP-binding subunit ERF3A (Homo sapiens) (UniProt Q96SW2+P15170)
Sequence (P15170 whole entry, looked up): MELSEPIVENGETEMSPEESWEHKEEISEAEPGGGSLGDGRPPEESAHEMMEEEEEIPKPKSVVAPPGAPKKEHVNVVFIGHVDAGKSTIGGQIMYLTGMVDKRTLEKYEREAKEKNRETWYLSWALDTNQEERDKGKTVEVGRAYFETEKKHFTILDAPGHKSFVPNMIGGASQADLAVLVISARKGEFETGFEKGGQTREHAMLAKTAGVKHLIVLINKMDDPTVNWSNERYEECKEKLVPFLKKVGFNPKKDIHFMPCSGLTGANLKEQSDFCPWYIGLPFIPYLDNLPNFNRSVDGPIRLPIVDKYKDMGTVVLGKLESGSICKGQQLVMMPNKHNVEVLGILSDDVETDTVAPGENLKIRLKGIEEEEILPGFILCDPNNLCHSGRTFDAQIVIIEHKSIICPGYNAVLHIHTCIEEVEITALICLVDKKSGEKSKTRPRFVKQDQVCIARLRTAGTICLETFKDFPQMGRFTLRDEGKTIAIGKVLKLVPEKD
Sequence (Q96SW2 whole entry, looked up): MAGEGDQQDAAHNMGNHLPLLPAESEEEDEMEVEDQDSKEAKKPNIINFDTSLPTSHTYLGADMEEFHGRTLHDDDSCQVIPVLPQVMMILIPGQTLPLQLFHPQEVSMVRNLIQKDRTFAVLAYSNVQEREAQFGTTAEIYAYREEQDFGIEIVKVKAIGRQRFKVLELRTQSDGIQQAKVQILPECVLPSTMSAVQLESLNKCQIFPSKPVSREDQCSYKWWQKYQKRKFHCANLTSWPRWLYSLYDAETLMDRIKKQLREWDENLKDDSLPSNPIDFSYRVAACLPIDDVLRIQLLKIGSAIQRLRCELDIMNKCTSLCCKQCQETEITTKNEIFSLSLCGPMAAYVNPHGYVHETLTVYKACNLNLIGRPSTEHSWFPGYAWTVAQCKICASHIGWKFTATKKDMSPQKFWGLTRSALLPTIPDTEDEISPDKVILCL
test: Protac activity at CRBN/GSPT1 (unknown origin) transfected in HEK293T cells at 100 nM incubated for 24 hrs by flow cytometry analysis relative to control
Type: cell-based
Strictly below 5% in Activity: label 1. Otherwise: label 0.

> print(dat)
                                   compound    group
1  O=C1CCC(N2Cc3cc(NC(=O)c4ccc5occc5c4)ccc3C2=O)C(=O)N1 (centres undefined)  label 1
2  COc1ccc2c(c1)C=C(C(=O)Nc1ccc3c(c1)CN(C1CCC(=O)NC1=O)C3=O)CO2 (centres undefined)  label 0
3  O=C1CCC(N2Cc3cc(NC(=O)c4ccc5ncsc5c4)ccc3C2=O)C(=O)N1 (centres undefined)  label 1
4  O=C1CCC(N2Cc3cc(NC(=O)C4=Cc5ccc(OC(F)(F)F)cc5OC4)ccc3C2=O)C(=O)N1 (centres undefined)  label 0
5  COc1cc(Br)cc2c1OCC(C(=O)Nc1ccc3c(c1)CN(C1CCC(=O)NC1=O)C3=O)=C2 (centres undefined)  label 1
6  O=C1CCC(N2Cc3cc(NC(=O)c4cc5ccccc5o4)ccc3C2=O)C(=O)N1 (centres undefined)  label 1

# ---- query compound ----
For this compound, is Activity lower than 5%? O=C1CCC(N2Cc3cc(NC(=O)c4cccc(Oc5ccccc5)c4)ccc3C2=O)C(=O)N1 (centres undefined) label 0
